Molecular target: menin/MLL (terbium chelate-labeled menin, FITC-MBM1 peptide) (Homo sapiens, UniProt O00255, T541A)
Construct: Menin (a.a 1-610-6xhis tag)
Sequence (O00255 with tags, fused parts or gaps T541A): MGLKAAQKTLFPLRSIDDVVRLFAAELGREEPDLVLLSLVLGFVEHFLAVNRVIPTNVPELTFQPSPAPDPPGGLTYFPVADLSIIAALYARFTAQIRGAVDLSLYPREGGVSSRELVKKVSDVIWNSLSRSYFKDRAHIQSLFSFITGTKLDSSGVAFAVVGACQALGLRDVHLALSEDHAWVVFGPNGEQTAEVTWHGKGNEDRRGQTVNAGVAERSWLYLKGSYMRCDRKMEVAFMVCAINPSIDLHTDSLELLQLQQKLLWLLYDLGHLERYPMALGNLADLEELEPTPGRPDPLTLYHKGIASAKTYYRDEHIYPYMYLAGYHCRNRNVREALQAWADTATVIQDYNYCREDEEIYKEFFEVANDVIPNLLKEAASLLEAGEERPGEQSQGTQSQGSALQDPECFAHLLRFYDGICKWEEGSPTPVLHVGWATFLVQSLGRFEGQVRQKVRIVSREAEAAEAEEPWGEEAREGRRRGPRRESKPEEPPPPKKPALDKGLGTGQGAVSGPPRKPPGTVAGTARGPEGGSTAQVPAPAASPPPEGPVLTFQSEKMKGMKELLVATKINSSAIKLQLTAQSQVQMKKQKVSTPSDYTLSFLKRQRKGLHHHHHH
Test: Menin/MLL homogenous time-resolved fluorescence (HTRF) assay
Details: 30 min incubation
pIC50: −log10 of the molar value.
Reported values of pIC50 for individual entries
parameterMeasured: pIC50

1) CC(C)[C@@H]([C@H]1C[C@@H](N2CCC(O)C(F)C2)C1)N1CC2(CCN(c3ncnnc3Oc3ccc(F)cc3-c3cncnc3C3CC3)C2)C1 (single isomer, unassigned) [Compound 85] :: 7.60
2) CNC(=O)c1nccc(N[C@H]2C[C@@H]([C@@H](C(C)C)N3CC4(CCN(c5ncnnc5Oc5ccc(F)cc5-c5cncnc5C5CC5)C4)C3)C2)n1 (single isomer, unassigned) [Compound 457] :: 9.54
3) Cc1noc(C2CC2)c1-c1cc(F)ccc1Oc1nncnc1N1CCC2(C1)CN([C@H](C(C)C)[C@H]1C[C@@H](N(C)C)C1)C2 (single isomer, unassigned) [Compound 503] :: 9.74
4) CO[C@H]1CCCN([C@H]2C[C@@H]([C@H](C(C)C)N3CC4(CCN(c5ncnnc5Oc5ccc(F)cc5-c5nnccc5C5CC5)C4)C3)C2)C1 (single isomer, unassigned) [Compound 256] :: 9.70
5) CC(C)[C@H]([C@H]1C[C@H](N2CCC(O)C(F)C2)C1)N1CC2(CCN(c3ncnnc3Oc3ccc(F)cc3-c3cncnc3C3CC3)C2)C1 (single isomer, unassigned) [Compound 33] :: 9.52
6) CC(=O)N[C@H]1C[C@@H]([C@H](C(C)C)N2CC3(CCN(c4ncnnc4Oc4ccc(F)cc4-c4nccnc4C4CC4)C3)C2)C1 (single isomer, unassigned) [Compound 178] :: 6.96
7) CC(C)[C@@H]([C@H]1C[C@]2(COC(=O)N2)C1)N1CC2(CCN(c3ncnnc3Oc3ccc(F)cc3-c3cncnc3C3CC3)C2)C1 (single isomer, unassigned) [Compound 320] :: 10.00
8) CC(C)[C@H]([C@H]1C[C@@H](NC2CC2)C1)N1CC2(CCN(c3ncnnc3Oc3ccc(F)cc3-c3cncnc3C3CC3)C2)C1 (single isomer, unassigned) [Compound 39] :: 10.00
9) CC(C)[C@@H]([C@H]1C[C@@H](N2CC[C@H](C(=O)N(C)C)C2)C1)N1CC2(CCN(c3ncnnc3Oc3ccc(F)cc3-c3cnncc3C3CC3)C2)C1 (single isomer, unassigned) [Compound 116] :: 10.00
